Measured z-score, listed per entry.
target: Luciferin 4-monooxygenase (Photinus pyralis); assay: firefly luciferase enzyme inhibitors, primary screen, biochemical, luminescence, purified enzyme, 2006 set (AID 1141); settings: SteadyGlo luminescence, 30 min, higher = more signal, called active from +8 up or from −8 down;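 also: cell-free assay with purified firefly luciferase at 100 ng per well in PBS; test concentration not given here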
observed-property: z-score

# compound, quantitative-readout
data = [
    ("C=C(CCCC)C(=O)CC[C@H](OC(C)=O)c1cccc(OCCO)c1", 0.0336),
    ("C=CCOC(=O)[C@H]1[C@@H]2C(=O)O[C@@H](c3ccccc3)[C@@H](c3ccccc3)N2[C@@H](c2ccc(OCCOC(=O)[C@@H]3C[C@@H]4C(=O)N5CCC[C@H]5C(=O)N4[C@@H]3c3cccc(OCCO)c3)cc2)[C@]12C(=O)Nc1ccccc12", -0.187),
    ("CCCCc1cn(C[C@H](Cc2ccccc2)NC(=O)N[C@H](CO)CCc2oc(C(C)=O)c(C(=O)OC)c2C(=O)OC)nn1", 1.29),
    ("Cc1ccc(C(C)CC(O)C2C=CC3C(=O)N(c4ccccc4)C(=O)C3N2Nc2ccc([N+](=O)[O-])cc2)o1 (centres undefined)", 1.45),
]

----------
experiment: P. aeruginosa biofilm formation inhibitors, primary screen, strain PAO1, LB-PBS medium, absorbance 600 nm (AID 1176); also: test concentration not given here; conditions: P. aeruginosa PAO1 growth/biofilm, A600, 12 h; higher = more signal
observed-property: z-score

# molecule, quantitative-readout
measured = [
    ("COCCCNC(=O)[C@@]1(Cc2ccccc2N=[N+]=[N-])N=C(c2ccc(OCCCO)cc2)O[C@H]1c1ccccc1N=[N+]=[N-]", 0.454),
    ("CC1(C)[C@@H]2CC(C(O)C3C=CC4C(=O)N(c5ccccc5)C(=O)C4N3Nc3ccccc3)=C[C@H]1C2 (stereo not given in full)", 0.711),
    ("C=CC[C@]12N=C(c3ccc(OCCCO)cc3)O[C@H]1c1ccccc1N(Cc1ccccc1)C2=O", 0.603),
    ("CC1CC/C=C\\[C@H]2OC34C=CCN(c5ccc(Cl)cc5)C(=O)[C@H]3N(CCO)C(=O)[C@]4(C)C2C(=O)O1 (stereo not given in full)", 0.0962),
    ("CCCC#C[Si](O[C@H](CC)c1cn([C@H](CO)Cc2ccccc2)nn1)(C(C)C)C(C)C", 0.0885),
]

----------
Measured composite z-score, listed per entry.
molecular target: Albumin (Bos taurus) (UniProt P02769); test: bovine serum albumin binders on microarray, profiling panel, artefact control for SMM control protein annotation, biochemical, small-molecule microarray, Alexa647 label, 635/667 nm fluorescence (AID 1118); details: BSA-A647 binding, fluorescence 635 nm, higher = more signal;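 also: score merges 667 nm emission intensity and signal-to-noise per printed compound spot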
Sequence (P02769 whole entry, looked up): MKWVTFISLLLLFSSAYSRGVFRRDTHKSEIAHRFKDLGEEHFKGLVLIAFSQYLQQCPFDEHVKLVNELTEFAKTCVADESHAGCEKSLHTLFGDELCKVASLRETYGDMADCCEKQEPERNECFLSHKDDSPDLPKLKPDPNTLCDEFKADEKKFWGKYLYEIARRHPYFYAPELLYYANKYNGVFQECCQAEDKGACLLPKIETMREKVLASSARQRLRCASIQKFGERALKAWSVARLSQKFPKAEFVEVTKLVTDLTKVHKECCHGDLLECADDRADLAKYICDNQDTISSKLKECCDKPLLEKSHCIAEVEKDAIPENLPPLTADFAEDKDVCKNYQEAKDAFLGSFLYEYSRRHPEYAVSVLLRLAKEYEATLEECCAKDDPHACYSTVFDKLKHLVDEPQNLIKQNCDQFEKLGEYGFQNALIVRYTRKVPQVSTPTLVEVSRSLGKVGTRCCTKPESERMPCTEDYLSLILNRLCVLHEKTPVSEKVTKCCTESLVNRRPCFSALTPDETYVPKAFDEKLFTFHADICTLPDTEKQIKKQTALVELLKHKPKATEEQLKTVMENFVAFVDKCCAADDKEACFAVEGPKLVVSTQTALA
observed-property: composite z-score

# molecule, system-under-test, observed-property, quantitative-readout
records = [
    ("COC(=O)[C@@]1(Cc2ccc(F)cc2)[C@H]2c3cc(C(=O)N(C)C)n(Cc4nc5ccccc5[nH]4)c3C[C@H]2CN1C(=O)c1ccccc1", "Albumin (Bos taurus) (UniProt P02769)", "composite z-score", 1.05),
    ("C=CCN1C(=O)[C@]2(O[C@H](CCO)[C@@H]([Si](C)(C)c3ccc(OC)cc3)[C@@H]2C)c2cc(N3CCCCC3=O)ccc21", "Albumin (Bos taurus) (UniProt P02769)", "composite z-score", 0.694),
    ("COc1ccc(COC2OC[C@]3(C)[C@H]4C5=C(CN3C(=O)OC(C)(C)C)[C@H](C)C(CO)C(CO)C5CC[C@@H]24)cc1 (some centres undefined)", "Albumin (Bos taurus) (UniProt P02769)", "composite z-score", 0.73),
    ("C=CCNC(=O)[C@H]1[C@@H]2C(=O)O[C@@H](c3ccccc3)[C@@H](c3ccccc3)N2[C@@H](c2ccccc2OCCO)[C@]12C(=O)Nc1ccc(C#CC3=CCCCC3)cc12", "Albumin (Bos taurus) (UniProt P02769)", "composite z-score", 0.039),
]

----------
system: Sam68 (KHDRBS1); assay: Sam68 small-molecule binders, primary screen, biochemical, small-molecule microarray, 635 nm fluorescence (AID 1125); details: small-molecule microarray binding, higher = more signal;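 also: score merges 667 nm channel intensity with signal to noise over triplicate slides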
Classify as follows. Reported composite z-score greater than or equal to 1: rule met. Reported composite z-score below: rule not met.

# compound, system-under-test, class-assignment
measured = [
    ("CC(C)C(CO)N1C(=O)[C@@H]2[C@H]3C(=O)OCC=C[C@H]3OC23C=CCN(C(C)C)C(=O)[C@@H]13 (stereo partly drawn)", "Sam68 (KHDRBS1)", "rule not met"),
    ("O=C1C[C@]2(c3ccc([N+](=O)[O-])cc3)C(=O)N(CCN3CCOCC3)c3cc(CO)ccc3[C@H]2N1C1CCCCC1", "Sam68 (KHDRBS1)", "rule not met"),
    ("C=CCOC(=O)[C@H]1[C@@H]2C(=O)O[C@@H](c3ccccc3)[C@@H](c3ccccc3)N2[C@@H](c2ccc(OCCOC(=O)[C@H]3C[C@H]4C(=O)N[C@@H](CC(C)C)C(=O)N4[C@H]3c3ccc(O)cc3)cc2)[C@]12C(=O)Nc1ccc(I)cc12", "Sam68 (KHDRBS1)", "rule met"),
    ("O=C1C2C=CC(C(O)c3c(F)cccc3Cl)N(Nc3ccccc3)C2C(=O)N1c1ccccc1 (stereo not drawn)", "Sam68 (KHDRBS1)", "rule met"),
    ("C=CCC(OC(C)=O)[C@@H]1[C@@H](N(Cc2cccc3ccccc23)C(=O)c2ccc(-c3ccccc3)cc2)c2cc(OCCCO)ccc2N1C(=O)Cc1ccc(OC)cc1 (stereo partly drawn)", "Sam68 (KHDRBS1)", "rule not met"),
    ("COc1ccc(CCN2C(=O)[C@@]3(Cc4ccccc42)c2ccccc2C(=O)N(Cc2ccccc2C(F)(F)F)[C@H]3c2ccc(CO)cc2)cc1", "Sam68 (KHDRBS1)", "rule not met"),
    ("O=C1c2ccccc2[C@@]2(Cc3ccccc3N(CC(F)(F)F)C2=O)[C@H](c2ccc(CO)cc2)N1Cc1ccccc1Cl", "Sam68 (KHDRBS1)", "rule not met"),
    ("[N-]=[N+]=Nc1ccccc1C[C@]1(C(=O)NCC(O)CO)N=C(c2ccc(OCCCO)cc2)O[C@H]1c1ccccc1N=[N+]=[N-] (stereo partly drawn)", "Sam68 (KHDRBS1)", "rule not met"),
    ("COC(=O)[C@@]1(Cc2ccc(OC)cc2)[C@H]2c3cc(C(=O)N(C)C)n(Cc4cccc5ccccc45)c3C[C@H]2CN1C(=O)c1ccccc1", "Sam68 (KHDRBS1)", "rule not met"),
    ("C=CC[C@@]1(C(N)=O)N=C(c2ccc(OCCCO)cc2)O[C@@H]1c1ccccc1CN=[N+]=[N-]", "Sam68 (KHDRBS1)", "rule met"),
    ("C=CC[C@@]1(C(=O)N(C)C)N=C(c2ccc(OCCCO)cc2)O[C@@H]1c1ccccc1N=[N+]=[N-]", "Sam68 (KHDRBS1)", "rule met"),
    ("C=C(COC)/C(=C/C[C@@H](OC(C)=O)c1ccc(OCCO)cc1)c1cc(C(=O)OC)ccc1OC", "Sam68 (KHDRBS1)", "rule met"),
    ("COCCOC(=O)N1C(=O)[C@@]2(c3cc(C#Cc4ccc(OC)cc4)ccc31)[C@H](c1ccc(O)cc1)N1[C@H](c3ccccc3)[C@H](c3ccccc3)OC(=O)[C@H]1[C@@H]2C(=O)NC[C@H](O)c1ccccc1", "Sam68 (KHDRBS1)", "rule met"),
]

----------
experiment: CREB reporter modulators without forskolin, primary screen, cell-based, PC12, CRE-LacZ reporter, unstimulated (AID 1145); details: no forskolin, luminescence, 4.5 h, called active from +8 up or from −8 down
Active and inactive are the calls of the source.
Outcome codes: Yes (active), No (inactive)

# compound, class-assignment
data = [
    ("C=CCNC(=O)[C@@H]1[C@H]2C(=O)O[C@H](c3ccccc3)[C@H](c3ccccc3)N2[C@H](c2ccccc2OCCO)[C@@]12C(=O)N(C(=O)OCCOC)c1ccc(C#CCNC(N)=O)cc12", "No"),
    ("CC(CO)N1C(=O)[C@@H]2C3C(=O)OCCC/C=C\\[C@H]3OC23C=CCN(c2ccc4ccccc4c2)C(=O)[C@@H]13 (some centres not stated)", "No"),
    ("CN(C)CCCNC(=O)[C@@]1(c2ccc([N+](=O)[O-])cc2)CC(=O)N(C2CCCCC2)[C@@H]1c1ccc(CO)cc1I", "No"),
    ("COC(=O)[C@@]1(Cc2ccc(F)cc2)[C@H]2c3cc(C(=O)N(C)C)n(Cc4nc5ccccc5[nH]4)c3C[C@H]2CN1C(=O)c1ccccc1", "No"),
    ("CCCCC(=C=CC[C@@H](O)c1ccccc1OCCO)CCO", "Yes"),
    ("CN1C(=O)C2C=CC(C(O)C3CCCCC3)N(Nc3ccc([N+](=O)[O-])cc3[N+](=O)[O-])C2C1=O (configuration not stated)", "No"),
    ("COCCOC(=O)N1C(=O)[C@@]2(c3ccccc31)[C@H](c1ccccc1OCCO)N1[C@H](c3ccccc3)[C@H](c3ccccc3)OC(=O)[C@H]1[C@@H]2C(=O)Nc1nc2ccccc2s1", "No"),
]
